Would you kindly list mass density for each of these molecules?
# experimentalConditions: 323.15 K; 12000 kPa; Liquid; vibrating tube
Report the figure in kg/m3 without appending any unit label.

## Task Query (molecule): CCn1cc[n+](C)c1.F[B-](F)(F)F [1-ethyl-3-methylimidazolium tetrafluoroborate] ; field requested: mass density
## Result 1272.19

## Task Query (molecule): CCCCCCCC[n+]1ccn(C)c1.F[B-](F)(F)F [1-methyl-3-octylimidazolium tetrafluoroborate] ; field requested: mass density
## Result 1093.87

## Task Query (molecule): CCCCn1cc[n+](C)c1.F[B-](F)(F)F [1-butyl-3-methylimidazolium tetrafluoroborate] ; field requested: mass density
## Result 1189.84

## Task Query (molecule): CCCCCCn1cc[n+](C)c1.F[B-](F)(F)F [1-hexyl-3-methylimidazolium tetrafluoroborate] ; field requested: mass density
## Result 1134.46

----------
Would you kindly list mass density for each of these molecules?
# experimentalConditions: 308.15 K; 12000 kPa; Liquid; vibrating tube
Numbers after ± are expanded uncertainties.
Answer as a quantity: numeral, then unit.

## Task Query (molecule): CCCCCCCC[n+]1ccn(C)c1.F[B-](F)(F)F [1-methyl-3-octylimidazolium tetrafluoroborate] ; field requested: mass density
## Result 1103.66 ± 0.94 kg/m3

## Task Query (molecule): CCn1cc[n+](C)c1.F[B-](F)(F)F [1-ethyl-3-methylimidazolium tetrafluoroborate] ; field requested: mass density
## Result 1283.22 ± 1.6 kg/m3

## Task Query (molecule): CCCCCCn1cc[n+](C)c1.F[B-](F)(F)F [1-hexyl-3-methylimidazolium tetrafluoroborate] ; field requested: mass density
## Result 1144.45 ± 0.95 kg/m3

## Task Query (molecule): CCCCn1cc[n+](C)c1.F[B-](F)(F)F [1-butyl-3-methylimidazolium tetrafluoroborate] ; field requested: mass density
## Result 1200.1 ± 0.98 kg/m3

----------
# experimentalConditions: 313.15 K; 8000 kPa; Liquid; vibrating tube
Numbers after ± are expanded uncertainties.
Would you kindly list mass density for each of these molecules?
Answer as a quantity: numeral, then unit.

## Task Query (molecule): CCCCCCn1cc[n+](C)c1.F[B-](F)(F)F [1-hexyl-3-methylimidazolium tetrafluoroborate] ; field requested: mass density
## Result 1139.15 ± 0.95 kg/m3

## Task Query (molecule): CCCCn1cc[n+](C)c1.F[B-](F)(F)F [1-butyl-3-methylimidazolium tetrafluoroborate] ; field requested: mass density
## Result 1194.8 ± 0.97 kg/m3

## Task Query (molecule): CCCCCCCC[n+]1ccn(C)c1.F[B-](F)(F)F [1-methyl-3-octylimidazolium tetrafluoroborate] ; field requested: mass density
## Result 1098.3 ± 0.94 kg/m3

## Task Query (molecule): CCn1cc[n+](C)c1.F[B-](F)(F)F [1-ethyl-3-methylimidazolium tetrafluoroborate] ; field requested: mass density
## Result 1277.73 ± 1.6 kg/m3

----------
# experimentalConditions: 288.15 K; 2000 kPa; Liquid; vibrating tube
measuredProperty: mass density (kg/m3)
Report the figure in kg/m3 without appending any unit label.

## Task Query (molecule): CCCCCCCC[n+]1ccn(C)c1.F[B-](F)(F)F [1-methyl-3-octylimidazolium tetrafluoroborate] ; field requested: mass density
## Result 1112.07

## Task Query (molecule): CCCCCCn1cc[n+](C)c1.F[B-](F)(F)F [1-hexyl-3-methylimidazolium tetrafluoroborate] ; field requested: mass density
## Result 1153.37

## Task Query (molecule): CCCCn1cc[n+](C)c1.F[B-](F)(F)F [1-butyl-3-methylimidazolium tetrafluoroborate] ; field requested: mass density
## Result 1209.73

## Task Query (molecule): CCn1cc[n+](C)c1.F[B-](F)(F)F [1-ethyl-3-methylimidazolium tetrafluoroborate] ; field requested: mass density
## Result 1294.02

----------
# experimentalConditions: 293.15 K; 30000 kPa; Liquid; vibrating tube
measuredProperty: mass density (kg/m3)
Report the figure in kg/m3 without appending any unit label.

## Task Query (compound): CCCCCCCC[n+]1ccn(C)c1.F[B-](F)(F)F [1-methyl-3-octylimidazolium tetrafluoroborate] ; field requested: mass density
## Result 1121.95

## Task Query (compound): CCCCCCn1cc[n+](C)c1.F[B-](F)(F)F [1-hexyl-3-methylimidazolium tetrafluoroborate] ; field requested: mass density
## Result 1162.74

## Task Query (compound): CCCCn1cc[n+](C)c1.F[B-](F)(F)F [1-butyl-3-methylimidazolium tetrafluoroborate] ; field requested: mass density
## Result 1218.46

## Task Query (compound): CCn1cc[n+](C)c1.F[B-](F)(F)F [1-ethyl-3-methylimidazolium tetrafluoroborate] ; field requested: mass density
## Result 1301.86

----------
Would you kindly list mass density for each of these molecules?
# experimentalConditions: 288.15 K; 6000 kPa; Liquid; vibrating tube
Report the figure in kg/m3 without appending any unit label.

## Task Query (molecule): CCn1cc[n+](C)c1.F[B-](F)(F)F [1-ethyl-3-methylimidazolium tetrafluoroborate] ; field requested: mass density
## Result 1295.72

## Task Query (molecule): CCCCn1cc[n+](C)c1.F[B-](F)(F)F [1-butyl-3-methylimidazolium tetrafluoroborate] ; field requested: mass density
## Result 1211.56

## Task Query (molecule): CCCCCCCC[n+]1ccn(C)c1.F[B-](F)(F)F [1-methyl-3-octylimidazolium tetrafluoroborate] ; field requested: mass density
## Result 1114.04

## Task Query (molecule): CCCCCCn1cc[n+](C)c1.F[B-](F)(F)F [1-hexyl-3-methylimidazolium tetrafluoroborate] ; field requested: mass density
## Result 1155.11

----------
# experimentalConditions: 318.15 K; 14000 kPa; Liquid; vibrating tube
Would you kindly list mass density for each of these compounds?
Report the figure in kg/m3 without appending any unit label.

## Task Query (compound): CCn1cc[n+](C)c1.F[B-](F)(F)F [1-ethyl-3-methylimidazolium tetrafluoroborate] ; field requested: mass density
## Result 1276.72

## Task Query (compound): CCCCCCCC[n+]1ccn(C)c1.F[B-](F)(F)F [1-methyl-3-octylimidazolium tetrafluoroborate] ; field requested: mass density
## Result 1098.18

## Task Query (compound): CCCCCCn1cc[n+](C)c1.F[B-](F)(F)F [1-hexyl-3-methylimidazolium tetrafluoroborate] ; field requested: mass density
## Result 1138.79

## Task Query (compound): CCCCn1cc[n+](C)c1.F[B-](F)(F)F [1-butyl-3-methylimidazolium tetrafluoroborate] ; field requested: mass density
## Result 1194.22

----------
Would you kindly list mass density for each of these compounds?
# experimentalConditions: 303.15 K; 6000 kPa; Liquid; vibrating tube
Report the figure in kg/m3 without appending any unit label.

## Task Query (compound): CCCCCCCC[n+]1ccn(C)c1.F[B-](F)(F)F [1-methyl-3-octylimidazolium tetrafluoroborate] ; field requested: mass density
## Result 1103.93

## Task Query (compound): CCn1cc[n+](C)c1.F[B-](F)(F)F [1-ethyl-3-methylimidazolium tetrafluoroborate] ; field requested: mass density
## Result 1284.35

## Task Query (compound): CCCCn1cc[n+](C)c1.F[B-](F)(F)F [1-butyl-3-methylimidazolium tetrafluoroborate] ; field requested: mass density
## Result 1200.85

## Task Query (compound): CCCCCCn1cc[n+](C)c1.F[B-](F)(F)F [1-hexyl-3-methylimidazolium tetrafluoroborate] ; field requested: mass density
## Result 1144.93

----------
# experimentalConditions: 293.15 K; 4000 kPa; Liquid; vibrating tube
Would you kindly list mass density for each of these molecules?
Report the figure in kg/m3 without appending any unit label.

## Task Query (molecule): CCCCn1cc[n+](C)c1.F[B-](F)(F)F [1-butyl-3-methylimidazolium tetrafluoroborate] ; field requested: mass density
## Result 1207.04

## Task Query (molecule): CCCCCCn1cc[n+](C)c1.F[B-](F)(F)F [1-hexyl-3-methylimidazolium tetrafluoroborate] ; field requested: mass density
## Result 1150.84

## Task Query (molecule): CCn1cc[n+](C)c1.F[B-](F)(F)F [1-ethyl-3-methylimidazolium tetrafluoroborate] ; field requested: mass density
## Result 1291.05

## Task Query (molecule): CCCCCCCC[n+]1ccn(C)c1.F[B-](F)(F)F [1-methyl-3-octylimidazolium tetrafluoroborate] ; field requested: mass density
## Result 1109.68

----------
Would you kindly list mass density for each of these compounds?
# experimentalConditions: 313.15 K; 2000 kPa; Liquid; vibrating tube
Report the figure in kg/m3 without appending any unit label.

## Task Query (compound): CCCCCCn1cc[n+](C)c1.F[B-](F)(F)F [1-hexyl-3-methylimidazolium tetrafluoroborate] ; field requested: mass density
## Result 1136.08

## Task Query (compound): CCCCn1cc[n+](C)c1.F[B-](F)(F)F [1-butyl-3-methylimidazolium tetrafluoroborate] ; field requested: mass density
## Result 1191.92

## Task Query (compound): CCCCCCCC[n+]1ccn(C)c1.F[B-](F)(F)F [1-methyl-3-octylimidazolium tetrafluoroborate] ; field requested: mass density
## Result 1095.13

## Task Query (compound): CCn1cc[n+](C)c1.F[B-](F)(F)F [1-ethyl-3-methylimidazolium tetrafluoroborate] ; field requested: mass density
## Result 1275.04
